Study System: HRgpA-6H (Porphyromonas gingivalis) (UniProt P28784)
Measurement Description: ELISA, FASEBA screening, coated HRgpA-6H 0.0625 ug/ml
Readout Kind: OD450 nm
Number only, no unit.

# OD450 nm of KB001 parental mouse Fab FASEBA variant VH S65L (Fab, V domains shown) VH: EVQLKQSGPGLVAPSQSLSITCTVSGFSLSIYSVHWVRQPPGKGLEWLGMIWGGGSSDYNSALKLRLSISKDNSKSQVFLKMNSLQTDDTAMYYCARNGNFYAMDYWGQGTSVTVSS VL: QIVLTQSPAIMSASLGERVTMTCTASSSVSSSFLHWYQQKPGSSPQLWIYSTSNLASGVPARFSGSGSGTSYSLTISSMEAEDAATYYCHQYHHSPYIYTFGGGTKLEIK = 0.728

Ref: patent US20240400654A1
